Test Target: T1, Recombinant human c-Met Fc chimera (human, UniProt P08581 16-932)
T1 construct: whole c-Met entry named; also called c-Met-Fc fusion protein
Procedure Text: competition with biotinylated HGF on plate-coated c-Met-Fc
Field 'label' (enum: T / F). Set to T when IC50 is strictly under 2 nM; else F.

Binder | Class Name
P114AR7P92-G8 (designed binder, not shown: small tags and cut ends) LPAPKNLVVSRVTEDSARLSWTAPDAAFDSFVIRYFEFLGSGEAIVLTVPGSERSYDLTGLKPGTEYVVQILGVKGGYISIPLSAIFTT | T
P114AR7P95-D3 (designed binder, not shown: small tags and cut ends) LPAPKNLVVSRVTEDSARLSWTAPDAAFDSFWIRYFEFLGSGEAIVLTVPGSERSYDLTGLKPGTEYVVNIMGVKGGSISYPLSAIFTT | T
P114AR5P75-E9 (designed binder, not shown: small tags and cut ends) LPAPKNLVVSRVTEDSARLSWTAPDAAFDSFFIRYDEFLRSGEAIVLTVPGSERSYDLTGLKPGTEYWVTILGVKGGLVSTPLSAIFTT | F
P114AR7P92-F6 (designed binder, not shown: small tags and cut ends) LPAPKNLVVSRVTEDSARLSWTAPDAAFDSFWIRYFEFLGSGEAIVLTVPGSERSYDLTGLKPGTEYVVNILGVKGGGLSVPLSAIFTT | F

Attention now shifts to the item below.
Lab note: IC50 threshold 2 nM. Does this binder come in strictly under it? P114AR7P93-G8 (designed binder, not shown: small tags and cut ends) LPAPKNLVVSRVTEDSARLSWTAPDAAFDSFWIRYFEFLGSGEAIVLTVPGSERSYDLTDLKPGTEYGVTINGVKGGRVSTPLSAIFTT T

Cited source: patent US20210301025A1
